# target.under.test: UniProtKB P0ABQ4
# Sequence (P0ABQ4 whole entry): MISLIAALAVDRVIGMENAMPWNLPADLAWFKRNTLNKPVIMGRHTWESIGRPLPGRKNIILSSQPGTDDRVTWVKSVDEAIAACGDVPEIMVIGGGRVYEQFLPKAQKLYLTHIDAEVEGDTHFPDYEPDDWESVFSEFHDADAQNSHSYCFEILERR
measured.quantity: pKi
Lab note: report pKi as minus log10 of the concentration in molar units, number only.

input: State the recorded pKi for this entry: CN(CCOc1ccc(C[C@H](Nc2ccccc2C(=O)c2ccccc2)C(=O)O)cc1)c1ccccn1 [GW1929]
output: 6.39
